Record form. Attribute: GI50. Fill in for each entry.
Tested on: PANC-1
protocol: SRB colorimetric assay of cell growth and viability, PANC-1
Format: cell-based, human
study conditions: 48 hours exposure, SRB
Where a SMILES comes first, the peptide text is derived from it. Bridges are numbered along the chain shown (N, C = ends). [ ]: non-standard residue; d: D form. The star is where a group is joined. d(aIle) = CC[C@H](C)[C@@H](N)C(=O)O; d(aThr) = C[C@@H](O)[C@@H](N)C(=O)O; Hexanoyl(5-Me) = CC(C)CCCC(=O)*; Orn = NCCC[C@H](N)C(=O)O; Dhb = C/C=C(\N)C(=O)O
The response must be a number in µM with no trailing unit.

Query: Give reported GI50 value for C/C=C1\NC(=O)[C@H](Cc2ccccc2)NC(=O)[C@@H](C(C)C)NC(=O)[C@@H]([C@@H](C)CC)NC(=O)[C@H](NC(=O)[C@H](NC(=O)[C@H](CCCN)NC(=O)[C@H]2CCCN2C(=O)[C@H](NC(=O)[C@@H](NC(=O)[C@H](CCCN)NC(=O)CCCC(C)C)C(C)C)C(C)C)[C@@H](C)CC)[C@@H](C)OC(=O)[C@H](C(C)C)NC1=O [Compound 57, [Orn^12, noD-Val^13]-KF] ({Hexanoyl(5-Me)}-[Orn]V[dV][dP][Orn][d(aIle)][d(aThr)][d(aIle)][dV]F[Dhb]V; ester 7-C)
Response: 3.88

Query: Assign GI50 to the following record: C/C=C1\NC(=O)[C@H](Cc2ccccc2)NC(=O)[C@@H](C(C)C)NC(=O)[C@@H]([C@@H](C)CC)NC(=O)[C@H](NC(=O)[C@H](NC(=O)[C@H](CCCN)NC(=O)[C@H]2CCCN2C(=O)[C@H](NC(=O)[C@@H](NC(=O)[C@@H](NC(=O)[C@H](NC(=O)CC[C@@H](C)[C@H]2CC[C@H]3[C@@H]4CC[C@@H]5C[C@H](OC(=O)C(F)(F)F)CC[C@]5(C)[C@H]4CC[C@]23C)C(C)C)[C@@H](C)OC(=O)C(F)(F)F)C(C)C)C(C)C)[C@@H](C)CC)[C@@H](C)OC(=O)[C@H](C(C)C)NC1=O [Compound 97]
Response: 2.64

---

Tested on: HeLa-APL
protocol: SRB colorimetric assay of cell growth and viability, HeLa-APL
Assay type: cell-based, human
study conditions: HELA-APL; 48 hours exposure; read-out: LC50 HELA-APL
Where a SMILES comes first, the peptide text is derived from it. Bridges are numbered along the chain shown (N, C = ends). [ ]: non-standard residue; d: D form. The star is where a group is joined. d(aIle) = CC[C@H](C)[C@@H](N)C(=O)O; d(aThr) = C[C@@H](O)[C@@H](N)C(=O)O; Hexanoyl(5-Me) = CC(C)CCCC(=O)*; Orn = NCCC[C@H](N)C(=O)O; Dhb = C/C=C(\N)C(=O)O
Define the label as 1 when CC50 is strictly less than 2000 nM and as 0 in all remaining cases.

Query: Is CC50 strictly under 2000 nM for the entry C/C=C1\NC(=O)[C@H](Cc2ccc(F)c(F)c2)NC(=O)[C@@H](C(C)C)NC(=O)[C@@H]([C@@H](C)CC)NC(=O)[C@H](NC(=O)[C@H](NC(=O)[C@H](CCCN)NC(=O)[C@H]2CCCN2C(=O)[C@H](NC(=O)[C@@H](NC(=O)[C@@H](NC(=O)[C@H](NC(=O)CCCC(C)C)C(C)C)[C@@H](C)O)C(C)C)C(C)C)[C@@H](C)CC)[C@@H](C)OC(=O)[C@H](C(C)C)NC1=O [Compound 84, [Phe(3,4-F2)^3]-KF] ?
Response: 1

Query: Strictly below 2000 nM in CC50? C/C=C1\NC(=O)[C@H](Cc2ccccc2)NC(=O)[C@@H](C(C)C)NC(=O)[C@@H]([C@@H](C)CC)NC(=O)[C@H](NC(=O)[C@H](NC(=O)[C@H](CCCN)NC(=O)[C@H]2CCCN2C(=O)[C@H](NC(=O)[C@@H](NC(=O)CNC(=O)[C@H](NC(=O)CCCC(C)C)C(C)C)C(C)C)C(C)C)[C@@H](C)CC)[C@@H](C)OC(=O)[C@H](C(C)C)NC1=O [Compound 111, [Gly^12]-KF] ({Hexanoyl(5-Me)}-[dV]GV[dV][dP][Orn][d(aIle)][d(aThr)][d(aIle)][dV]F[Dhb]V; ester 8-C)
Response: 0

Query: Is 2000 nM strictly greater than the compound's reported CC50? compound: C/C=C1\NC(=O)[C@H](Cc2cccc(Cl)c2)NC(=O)[C@@H](C(C)C)NC(=O)[C@@H]([C@@H](C)CC)NC(=O)[C@H](NC(=O)[C@H](NC(=O)[C@H](CCCN)NC(=O)[C@H]2CCCN2C(=O)[C@H](NC(=O)[C@@H](NC(=O)[C@@H](NC(=O)[C@H](NC(=O)CCCC(C)C)C(C)C)[C@@H](C)O)C(C)C)C(C)C)[C@@H](C)CC)[C@@H](C)OC(=O)[C@H](C(C)C)NC1=O [Compound 82, [Phe(3-Cl)^3]-KF]
Response: 1

Query: Does C/C=C1\NC(=O)[C@H](Cc2ccccc2)NC(=O)[C@@H](C(C)C)NC(=O)[C@@H]([C@@H](C)CC)NC(=O)[C@H](NC(=O)[C@H](NC(=O)[C@H](CCCN)NC(=O)[C@H]2CCCN2C(=O)[C@H](NC(=O)[C@@H](NC(=O)[C@H](CC(C)C)NC(=O)[C@H](NC(=O)CCCC(C)C)C(C)C)C(C)C)C(C)C)[C@@H](C)CC)[C@@H](C)OC(=O)[C@H](C(C)C)NC1=O [Compound 113, [Leu^12]-KF] ({Hexanoyl(5-Me)}-[dV]LV[dV][dP][Orn][d(aIle)][d(aThr)][d(aIle)][dV]F[Dhb]V; ester 8-C) have CC50 strictly under 2000 nM?
Response: 0

Query: Dear reviewer, please state whether C/C=C1\NC(=O)[C@H](Cc2ccc(Cl)cc2)NC(=O)[C@@H](C(C)C)NC(=O)[C@@H]([C@@H](C)CC)NC(=O)[C@H](NC(=O)[C@H](NC(=O)[C@H](CCCN)NC(=O)[C@H]2CCCN2C(=O)[C@H](NC(=O)[C@@H](NC(=O)[C@@H](NC(=O)[C@H](NC(=O)CCCC(C)C)C(C)C)[C@@H](C)O)C(C)C)C(C)C)[C@@H](C)CC)[C@@H](C)OC(=O)[C@H](C(C)C)NC1=O [Compound 83, [Phe(4-Cl)^3]-KF] has CC50 strictly beneath 2000 nM.
Response: 1

Query: Take the compound C/C=C1\NC(=O)[C@H](Cc2ccccc2)NC(=O)[C@@H](C(C)C)NC(=O)[C@@H]([C@@H](C)CC)NC(=O)[C@H](NC(=O)[C@H](NC(=O)[C@H](CCCN)NC(=O)[C@H]2CCCN2C(=O)[C@H](NC(=O)[C@@H](NC(=O)[C@@H]2CCCN2C(=O)[C@H](NC(=O)CCCC(C)C)C(C)C)C(C)C)C(C)C)[C@@H](C)CC)[C@@H](C)OC(=O)[C@H](C(C)C)NC1=O [Compound 117, [Pro^12]-KF] ({Hexanoyl(5-Me)}-[dV]PV[dV][dP][Orn][d(aIle)][d(aThr)][d(aIle)][dV]F[Dhb]V; ester 8-C) and say whether its CC50 is less than 2000 nM.
Response: 0
